Tested on: SAUR 9218
Assay: MIC Test Method, standard agar dilution
Type: cell-based
Settings: agar dilution, Mueller Hinton agar, incubated overnight at 35° C.; lowest concentration that inhibits visible growth; read-out: SAUR 9218 MIC
MIC under 0.2 µg/mL gets True, anything at or over 0.2 µg/mL gets False.

{"columns": ["entrySmiles", "discreteLabel"],
 "data": [
  ["N#Cc1ccc(NC(=O)c2noc3ccc(S(=O)(=O)N4CCc5cc(Cl)ccc54)cc23)c(C(=O)O)c1", "True"],
  ["N#Cc1ccc(NC(=O)c2cc3cccc(NC(=O)Cc4c(Cl)cccc4Cl)c3[nH]2)c(C(=O)O)c1", "False"],
  ["N#Cc1ccc(NC(=O)c2cc3cccc(OCc4ccccc4)c3[nH]2)c(C(=O)O)c1", "True"],
  ["N#Cc1ccc(NC(=O)c2cc3cccc(NC(=O)c4cccc(S(=O)(=O)N5CCOCC5)c4)c3[nH]2)c(C(=O)O)c1", "False"],
  ["CC(C)Sc1ccc(C(=O)Nc2ccc(C#N)cc2C(=O)O)cn1", "False"],
  ["CCCCN(CCO)S(=O)(=O)c1cc(C(=O)Nc2ccc(C#N)cc2C(=O)O)sc1C", "False"],
  ["N#Cc1ccc(NC(=O)c2cc3cccn3cn2)c(C(=O)O)c1", "False"],
  ["N#Cc1ccc(NC(=O)c2cc3cccc(NC(=O)c4ccccc4)c3[nH]2)c(C(=O)O)c1", "False"],
  ["CC(C)CCSc1cnc(C(=O)Nc2ccc(C#N)cc2C(=O)O)cn1", "True"]
]}
